# System: Aβ42
# test: γ-secretase-modulating activity, Method 2: Aβ42 Alphalisa in supernatant of SKNBE2 cells carrying APP 695-wild type (Table 3b)
# Type: cell-based
# setup.conditions: overnight
# Description: Screening was carried out using SKNBE2 cells carrying the APP 695-wild type, grown in Dulbecco's Modified Eagle's Medium/Nutrient mixture F-12 (DMEM/NUT-mix F-12) (HAM) provided by Invitrogen (cat no. 10371-029) containing 5% Serum/Fe supplemented with 1% non-essential amino acids, 1-glutamine 2 mM, Hepes 15 mM, penicillin 50 U/ml (units/ml) en streptomycin 50 μg/ml. […] Aβtotal and Aβ42 concentrations were quantified in the cell supernatant using the Aphalisa technology (Perkin Elmer). […]
readout.label: IC50 (nM)
Please state the figure in nM; there is no need to write the unit.

### Prompt So what's the measured IC50 for this one? COc1cc(-c2nc(N3CCOc4ccccc43)n(C)n2)ccc1-n1cnc(C)c1 [Compound 325]
### Response 182

### Prompt Suppose we examine the molecule COc1cc(-c2nc(C3(c4cc(C(F)(F)F)ccc4F)CC3)n(C)n2)ccc1-n1cnc(C)c1 [Compound 90] ; what IC50 value has been reported?
### Response 562

### Prompt Looking for the measured IC50 of COc1cc(-c2nc3c(Nc4cccc(C(F)(F)F)c4)cccn3n2)ccc1-n1cnc(C)c1 [Compound 289] , can you help?
### Response 708

### Prompt Need IC50, item COc1cc(-c2nc3n(n2)CCOC3c2ccccc2C(F)(F)F)ccc1-n1cnc(C)c1 (stereo not shown) [Compound 316]
### Response 661

### Prompt Can you look up the measured IC50 of COc1cc(-c2nc3n(n2)CCCC3c2cc(OC(F)(F)F)ccc2F)ccc1-n1cnc(C)c1 (stereo not shown) [Compound 265] for me?
### Response 19

### Prompt For the molecule COc1cc(-c2nc(Nc3cccc(NC(C)=O)c3)n(C)n2)ccc1-n1cnc(C)c1 [Compound 222] , what IC50 is on record?
### Response 1150

### Prompt Need IC50, item COc1cc(-c2nc(Nc3ccccc3OC(F)F)n(C)n2)ccc1-n1cnc(C)c1 [Compound 310]
### Response 44

### Prompt Using the record for COc1nc(-c2nc(Nc3ccc(F)cc3C(F)(F)F)n(C)n2)ccc1-n1cnc(C)c1 [Compound 158] , report its IC50.
### Response 40

### Prompt Returns the measured IC50 for the input molecule. Input: COc1cc(-c2nc3n(n2)CCOC3c2cccc(F)c2C)ccc1-n1cnc(C)c1 (stereo not shown) [Compound 345]
### Response 107

### Prompt IC50 lookup needed for COc1cc(-c2nc(/C=C/c3ccc(F)cc3)n(C)n2)ccc1-n1cnc(C)c1 [Compound 45] , thanks.
### Response 85

### Prompt I have this molecule here, COc1cc(-c2nc(Oc3ccccc3Cl)n(C)n2)ccc1-n1cnc(C)c1 [Compound 248] , and I need its recorded IC50.
### Response 389

### Prompt Name the recorded IC50 for COCCOc1ccc(F)c(Nc2nc(-c3ccc(-n4cnc(C)c4)c(OC)c3)nn2C)c1 [Compound 355] .
### Response 135

### Prompt Entry COc1cc(-c2nc(Nc3ccc(F)cc3)n(C)n2)ccc1-n1cnc(C)c1 [Compound 106] : reported IC50 = ?
### Response 132

### Prompt Form field: reported IC50 of COc1nc(-c2nc3n(n2)CCC[C@@H]3c2ccc(F)cc2C)ccc1-n1cnc(C)c1 [Compound 360]
### Response 240

### Prompt So what does the record say about IC50 for COc1cc(-c2nc3n(n2)CCN(C(C)=O)C3c2cccc(C(F)(F)F)c2)ccc1-n1cnc(C)c1 (stereo not shown) [Compound 277] ?
### Response 661

### Prompt Could you share which IC50 value was measured for COc1cc(-c2n[nH]c(C3CCCCC3)n2)ccc1-n1cnc(C)c1 [Compound 33] ?
### Response 269
